Tested on: MDA-MB-231
Assay: NCI tumour cell line growth inhibition, 48 h
Active and inactive are the calls of the source. Cut-off read from the data, not from the text of the source: active = GI50 up to about 1.1 µM and inactive = higher.
Outcomes: active, inactive

1. CC1(C)OCC(C2OC(OC(=O)c3ccc(C(F)(F)F)cc3)C3OC(C)(C)OC23)O1 (centres undefined) :: inactive
2. CC(=O)OC1COC(Nn2c(=O)[nH]c3ccccc3c2=O)C(OC(C)=O)C1OC(C)=O (centres undefined) :: inactive
3. CC(C)NC(=O)OCc1c(COC(=O)NC(C)C)c(-c2ccc[n+](COC(=O)C3CC3)c2)n2c1CCC2 :: inactive
4. COc1ccc(\N=C/C=C/C(=C/COC(C)=O)OC(C)=O)cc1 :: inactive
5. CCCC(=O)Nc1ncnc2c1ncn2C1OC2COP(=O)(O)OC2C1OC(=O)CCC (centres undefined) :: inactive
6. N#C/C(=C\NC(=S)c1ccncc1)c1nc2ccccc2s1 :: inactive
7. CN1C(=O)[C@@]2(C=CC3(CC2)OCCO3)c2ccccc21 :: inactive
8. c1cc(NC2=NCCO2)c2c(c1)OCO2 :: inactive
9. COc1ccc(-c2oc3cc(O)c(OC)c(O)c3c(=O)c2O)cc1 :: inactive
10. CC(=O)O[C@H]1C(=O)[C@@]2(C)[C@H]([C@H](OC(=O)c3ccccc3)[C@]3(O)C[C@H](OC(=O)[C@H](O)[C@@H](NC(=O)C(C)(O)C(C)O)c4ccccc4)C(C)=C1C3(C)C)[C@]1(OC(C)=O)CO[C@@H]1C[C@@H]2O (some centres undefined) :: active
11. CC1N[B@@-](C)(c2ccc(C(F)(F)F)cc2)OC1c1ccccc1 (some centres undefined) :: inactive
12. O=c1[nH]/c(=C/c2ccc(OCc3ccccc3)cn2)c(=O)[nH]/c1=C/c1ccc(Cl)cc1 :: inactive
13. COc1ccc(/N=C2\C(=O)C3=C(OC(C)(C)CC3)c3ccccc32)cc1 :: inactive
14. N#Cc1sc2c(c1OC(=O)c1ccccc1)c(=O)n(-c1ccccc1)c(=S)n2-c1ccccc1 :: inactive
15. CC(/C=C/C(=O)NO)=C\C(C)C(=O)c1ccc(N(C)C)cc1 (centres undefined) :: active
16. COc1c(OC)c(OC)c(-c2cc(=O)c3c(OC)c(OC)c(OC)c(OC)c3o2)c(OC)c1OC :: inactive
17. N#CC(c1cc(Cl)ncn1)c1nc2ccccc2s1 (centres undefined) :: inactive
18. O=C(Nc1ccccc1C(=O)Nc1nccs1)c1ccccc1 :: inactive
19. CS(=O)(=O)C[S+]([O-])C[S+]([O-])C[S+]([O-])CC(NC(=O)CCC(N)C(=O)O)C(=O)O (centres undefined) :: inactive
